- TGT: GABAA2 receptors (α2, β3, γ2 receptor subunits transfected into Sf9 cells) (Homo sapiens, UniProt P18507+P47869)
- EXPERIMENT: GABAA2 Binding Method ([3H]-Flunitrazepam displacement)
- EXPERIMENTAL_CONTEXT: [3H]-Flunitrazepam ~2 nM, α2β3γ2 Sf9 membranes, 1 hr at 4° C.
- Procedure: In some embodiments, the binding test is directed to a subtype of GABAA receptors, such as GABAA1 receptors (i.e., those containing the α1 subunit), GABAA2 receptors (i.e., those containing the α2 subunit), GABAA3 receptors (i.e., those containing the α3 subunit) and GABAA5 receptors (i.e., those containing the α5 subunit). [^3H]-Flunitrazepam (Cat #NET567): Prepare 10× stock=20 nM, [F} in assay=˜2 nM 1. […] Data is analyzed by calculating percent of control, IC50, and Ki in an XLfit template. […]
pKi: −log10 of the molar value.
List of pKi values.
REPORTED_PROPERTY: pKi

SUBSTANCE_SMILES | ASSAY_RESULT
CCCN1Cc2nc3c(-c4cccc(OC)c4)cccc3c(N)c2C1=O | 7.20
Nc1c2c(nc3c(-c4cccnc4F)c(F)ccc13)CN(C1CCC1)C2=O | 9.61
COc1ncc(-c2cccc3c(N)c4c(nc23)CN(C2CCC2)C4=O)cc1C | 8.34
COc1cc(F)ccc1-c1cccc2c(N)c3c(nc12)CN(C1CCC1)C3=O | 8.08
CCN1Cc2nc3c(-c4ccccc4F)c(F)ccc3c(N)c2C1=O | 8.82
COc1ccc(CN2Cc3nc4c(-c5ccc(F)cc5OC)cccc4c(N)c3C2=O)cc1 | 7.51
C=Cc1ccccc1-c1c(F)ccc2c(N)c3c(nc12)CN(C1CCC1)C3=O | 8.77
COc1ncc(-c2cccc3c(N)c4c(nc23)CN(Cc2ccc3c(c2)OCO3)C4=O)c(OC)n1 | 7.52
CCN1Cc2nc3c(-c4cccc(OC)c4F)c(F)ccc3c(N)c2C1=O | 8.28
CCCN1Cc2nc3c(-c4cccnc4)cccc3c(N)c2C1=O | 7.33

* * *

- TGT: GABAA receptor α1β2γ2 (Homo sapiens, UniProt P14867+P18507)
- Construct: expressed in transfected cells; host or cells: Xenopus laevis oocytes injected with cRNA
- Sequence (P14867 28-456, one chain of several): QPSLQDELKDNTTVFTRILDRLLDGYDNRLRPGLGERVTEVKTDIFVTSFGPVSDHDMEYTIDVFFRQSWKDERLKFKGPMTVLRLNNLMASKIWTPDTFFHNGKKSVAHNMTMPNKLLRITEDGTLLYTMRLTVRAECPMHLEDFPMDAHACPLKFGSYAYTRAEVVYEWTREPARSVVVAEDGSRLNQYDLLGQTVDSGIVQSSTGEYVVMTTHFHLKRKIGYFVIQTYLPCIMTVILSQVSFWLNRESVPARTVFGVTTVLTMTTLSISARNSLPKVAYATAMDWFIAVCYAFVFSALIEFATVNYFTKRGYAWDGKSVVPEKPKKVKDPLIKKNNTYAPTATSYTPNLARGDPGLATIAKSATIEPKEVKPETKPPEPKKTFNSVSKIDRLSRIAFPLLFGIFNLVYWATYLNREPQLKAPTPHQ
- Sequence (P47870 25-512 partner limits assumed, one chain of several): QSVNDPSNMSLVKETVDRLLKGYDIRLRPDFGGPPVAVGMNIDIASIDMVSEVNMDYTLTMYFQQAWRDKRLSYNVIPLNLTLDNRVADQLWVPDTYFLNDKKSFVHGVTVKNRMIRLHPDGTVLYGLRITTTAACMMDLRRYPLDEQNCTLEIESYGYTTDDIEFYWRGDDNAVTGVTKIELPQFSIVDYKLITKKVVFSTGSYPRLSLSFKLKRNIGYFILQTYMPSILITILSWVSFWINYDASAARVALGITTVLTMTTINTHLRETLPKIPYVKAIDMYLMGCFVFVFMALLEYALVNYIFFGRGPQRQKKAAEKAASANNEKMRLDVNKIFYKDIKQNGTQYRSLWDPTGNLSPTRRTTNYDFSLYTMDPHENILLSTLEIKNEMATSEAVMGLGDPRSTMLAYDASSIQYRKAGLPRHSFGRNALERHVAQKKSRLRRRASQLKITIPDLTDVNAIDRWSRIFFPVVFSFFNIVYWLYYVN
- EXPERIMENT: Two-electrode voltage-clamp potentiation of GABA EC10 current in Xenopus oocytes, GABAA1
- Type: cell-based
- EXPERIMENTAL_CONTEXT: percentage potentiation of GABA EC10 current divided by that of diazepam
REPORTED_PROPERTY: Relative Potentiation for GABAA1

SUBSTANCE_SMILES | ASSAY_RESULT
Nc1c2c(nc3c(-c4ccc(F)nc4F)cccc13)CN(C1CCC1)C2=O | 0.033
COc1ccncc1-c1cccc2c(N)c3c(nc12)CN(C1CCC1)C3=O | 0.09
CCCN1Cc2nc3c(-c4cccnc4F)cccc3c(N)c2C1=O | 0.21
CCCN1Cc2nc3c(-c4ccc(C)nc4)cccc3c(N)c2C1=O | 0.092
COc1ncc(-c2c(F)ccc3c(N)c4c(nc23)CN(C2CCC2)C4=O)c(OC)n1 | 0.11
COc1ccc(-c2cccc3c(N)c4c(nc23)CN(C2CC2)C4=O)c(C(F)(F)F)c1 | 0.5
CCCN1Cc2nc3c(-c4ccccc4Cl)cccc3c(N)c2C1=O | 0.35
COc1cc(F)ccc1-c1c(F)ccc2c(N)c3c(nc12)CN(C1CCC1)C3=O | 0.0067
CCCN1Cc2nc3c(-c4cccc(OC)c4F)cccc3c(N)c2C1=O | 0.2
COc1cc(F)c(-c2cccc3c(N)c4c(nc23)CN(C2CCC2)C4=O)c(F)c1 | −0.023

* * *

- TGT: GABAA receptor α2β3γ2 (Homo sapiens, UniProt P18507+P47869)
- Construct: expressed in transfected cells; host or cells: Xenopus laevis oocytes injected with cRNA
- Sequence (P47869 29-451): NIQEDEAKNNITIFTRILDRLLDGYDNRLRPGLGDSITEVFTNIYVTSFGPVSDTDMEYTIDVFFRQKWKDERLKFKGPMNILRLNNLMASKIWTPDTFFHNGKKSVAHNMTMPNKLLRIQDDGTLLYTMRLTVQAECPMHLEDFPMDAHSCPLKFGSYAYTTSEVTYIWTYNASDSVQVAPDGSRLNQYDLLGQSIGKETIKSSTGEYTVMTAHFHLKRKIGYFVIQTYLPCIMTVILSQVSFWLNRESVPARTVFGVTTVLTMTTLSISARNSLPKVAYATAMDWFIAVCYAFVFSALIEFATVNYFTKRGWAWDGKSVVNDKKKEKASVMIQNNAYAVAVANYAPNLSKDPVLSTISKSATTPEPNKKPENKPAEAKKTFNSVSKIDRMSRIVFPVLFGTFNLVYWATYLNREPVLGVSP
- Sequence (P28472 26-473 partner): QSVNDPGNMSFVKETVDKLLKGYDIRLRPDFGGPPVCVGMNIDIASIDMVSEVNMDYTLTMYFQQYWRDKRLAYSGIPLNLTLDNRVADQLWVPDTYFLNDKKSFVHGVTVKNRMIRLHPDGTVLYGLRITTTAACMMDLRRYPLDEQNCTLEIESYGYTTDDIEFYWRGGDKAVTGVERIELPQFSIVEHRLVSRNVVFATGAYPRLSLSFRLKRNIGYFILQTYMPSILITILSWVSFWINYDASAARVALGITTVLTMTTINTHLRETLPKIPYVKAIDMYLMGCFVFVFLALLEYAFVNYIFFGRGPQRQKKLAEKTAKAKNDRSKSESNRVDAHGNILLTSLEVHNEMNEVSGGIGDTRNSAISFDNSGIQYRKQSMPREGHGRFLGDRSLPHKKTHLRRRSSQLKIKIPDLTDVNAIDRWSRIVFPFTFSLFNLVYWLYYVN
- Sequence (P18507 40-475): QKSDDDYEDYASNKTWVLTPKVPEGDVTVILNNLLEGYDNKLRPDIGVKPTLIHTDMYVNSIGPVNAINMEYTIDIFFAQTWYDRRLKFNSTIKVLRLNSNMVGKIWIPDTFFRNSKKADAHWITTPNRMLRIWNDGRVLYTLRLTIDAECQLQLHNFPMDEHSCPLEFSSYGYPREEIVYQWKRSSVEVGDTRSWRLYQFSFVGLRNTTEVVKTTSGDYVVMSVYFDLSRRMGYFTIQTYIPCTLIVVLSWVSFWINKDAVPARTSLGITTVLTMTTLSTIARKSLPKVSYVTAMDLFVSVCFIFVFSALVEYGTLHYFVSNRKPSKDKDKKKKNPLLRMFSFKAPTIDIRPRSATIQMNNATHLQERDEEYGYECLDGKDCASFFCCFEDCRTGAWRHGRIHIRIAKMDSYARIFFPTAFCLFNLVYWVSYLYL
- EXPERIMENT: Two-electrode voltage-clamp potentiation of GABA EC10 current in Xenopus oocytes, GABAA2
- Type: cell-based
- EXPERIMENTAL_CONTEXT: percentage potentiation of GABA EC10 current divided by that of diazepam
- Procedure: GABAA receptors were heterologously expressed in Xenopus oocytes by injecting cRNA corresponding to human α1, α2, α3, α5, β2, P3 and γ2 subunits of the GABAA receptor genes. […] Modulatory effect of test compound is determined and compared across subtypes. […] All measurements were done in a medium containing ND-96 (96 NaCl, 2 KCl, 1.8 CaCl2.2H2O, 1 MgCl2.6H2O, 5 HEPES, in mM, pH 7.5). […] The concentration of GABA corresponded to the EC10 value calculated for each oocyte. […]
Output true (1) for records whose Relative Potentiation for GABAA2 is lower than 0.1, false (0) for records at or above 0.1.

COMPOUND | LABEL
CCCN1Cc2nc3c(-c4c(F)cccc4F)cccc3c(N)c2C1=O [Example 56] | false (0)
COc1ccc(CN2Cc3nc4c(-c5cc(F)ccc5F)cccc4c(N)c3C2=O)cc1 [Example 2] | false (0)
COc1ccc(CN2Cc3nc4c(-c5ccc(Cl)nc5)cccc4c(N)c3C2=O)cc1OC [Example 8] | true (1)
Nc1c2c(nc3c(-c4cccnc4F)c(F)ccc13)CN(C1CCC1)C2=O | false (0)
COc1cccc(-c2cccc3c(N)c4c(nc23)CN(C2CC2)C4=O)c1F [Example 22] | false (0)
COc1ccc(CN2Cc3nc4c(-c5c(F)cccc5OC)cccc4c(N)c3C2=O)cc1Cl | false (0)
COc1nnccc1-c1cccc2c(N)c3c(nc12)CN(C1CCC1)C3=O | false (0)
COc1ccc(CN2Cc3nc4c(-c5ccc(-c6ccc(Cl)nc6)nc5)cccc4c(N)c3C2=O)cc1OC | true (1)
COc1ncc(-c2c(F)ccc3c(N)c4c(nc23)CN(C2CCC2)C4=O)c(OC)n1 | false (0)

* * *

List of pKi values.
- TGT: GABAA2 receptors (α2, β3, γ2 receptor subunits transfected into Sf9 cells) (Homo sapiens, UniProt P18507+P47869)
- EXPERIMENT: GABAA2 Binding Method ([3H]-Flunitrazepam displacement)
- EXPERIMENTAL_CONTEXT: [3H]-Flunitrazepam ~2 nM, α2β3γ2 Sf9 membranes, 1 hr at 4° C.
pKi: −log10 of the molar value.

COMPOUND | pKi
Nc1c2c(nc3c(-c4cc(Cl)ccc4Cl)cccc13)CN(C1CC1)C2=O [Example 59] | 7.94
COc1cccc(Cl)c1-c1cccc2c(N)c3c(nc12)CN(C1CC1)C3=O | 7.83
Nc1c2c(nc3c(-c4ccccc4F)cccc13)CN(C1CC1)C2=O | 7.74
COc1ccc(-c2cccc3c(N)c4c(nc23)CN(C2CC2)C4=O)c(C(F)(F)F)c1 | 7.50
CCCN1Cc2nc3c(-c4ccc(OC)nc4C)cccc3c(N)c2C1=O | 7.79
CCCN1Cc2nc3c(-c4ccc(F)c(C#N)c4)cccc3c(N)c2C1=O | 7.13
CCCN1Cc2nc3c(-c4cc(Cl)ccc4Cl)cccc3c(N)c2C1=O | 7.93
COc1cc(F)c(-c2cccc3c(N)c4c(nc23)CN(C2CCC2)C4=O)c(F)c1 | 8.84
COc1cncc(-c2cccc3c(N)c4c(nc23)CN(C2CCC2)C4=O)c1 | 8.73
CCN1Cc2nc3c(-c4ccc(C)nc4)cccc3c(N)c2C1=O | 7.11

* * *

- TGT: GABAA receptor α1β2γ2 (Homo sapiens, UniProt P14867+P18507)
- Construct: expressed in transfected cells; host or cells: Xenopus laevis oocytes injected with cRNA
- EXPERIMENT: Two-electrode voltage-clamp potentiation of GABA EC10 current in Xenopus oocytes, GABAA1
- Format: cell-based
- EXPERIMENTAL_CONTEXT: percentage potentiation of GABA EC10 current divided by that of diazepam
Output condition met for records whose Relative Potentiation for GABAA1 is lower than 0.09, condition not met for records at or above 0.09.

COMPOUND | LABEL
Cc1cccc(-c2cccc3c(N)c4c(nc23)C(O)N(C2CCC2)C4=O)n1 (stereo not shown) | condition met
COc1ccc(Cl)cc1-c1cccc2c(N)c3c(nc12)CN(C1CCC1)C3=O [Example 49] | condition not met
COc1ccccc1-c1cccc2c(N)c3c(nc12)CN(C1CCC1)C3=O [Example 63] | condition met
CCCN1Cc2nc3c(-c4cc(C)ccc4F)cccc3c(N)c2C1=O | condition not met
CCN1Cc2nc3c(-c4ccccc4OC)c(F)ccc3c(N)c2C1=O [Example 45] | condition met
Cn1cc(-c2cccc3c(N)c4c(nc23)CN(C2CCC2)C4=O)cn1 | condition met
CCCN1Cc2nc3c(-c4ccncc4)cccc3c(N)c2C1=O | condition not met
COc1cccc(-c2cccc3c(N)c4c(nc23)CN(C2CCC2)C4=O)n1 | condition met
COc1cc(F)c(-c2cccc3c(N)c4c(nc23)CN(C2CC2)C4=O)c(F)c1 | condition met
